Experiment: Clinical Study #2: plasma pharmacokinetics of dextromethorphan, dextrorphan and quinidine, single and multiple dose
Details: human, in vivo, AUC (0-12) (plasma), mean, Day 4; EM; 30 mg DM HBr/25 mg Q sulfate capsule every 12 hours
reported property: AUC(0-t)
Provide a numeric answer, followed by its unit.

compound	reported property	reported
COc1ccc2c(c1)[C@]13CCCCC1[C@H](C2)N(C)CC3 (single isomer, unassigned; (+)) [Dextromethorphan, (+)-3-methoxy-N-methylmorphinan]	AUC(0-t)	812 ng·h/mL

Attention now turns to another entry.
IN: Data request, read-out AUC(0-t), for "CN1CC[C@@]23CCCC[C@@H]2[C@@H]1Cc1ccc(O)cc13"
OUT: 849 ng·h/mL

====

Assay: Clinical Study #2: plasma pharmacokinetics of dextromethorphan, dextrorphan and quinidine, single and multiple dose
Details: human, in vivo, T ½ el (plasma), mean, Day 8; PM; 30 mg DM HBr/25 mg Q sulfate capsule every 12 hours
reported property: half-life (h)
Answers are plain numbers, in h.

IN: Data request, read-out half-life, for COc1ccc2c(c1)[C@]13CCCCC1[C@H](C2)N(C)CC3 (single isomer, unassigned; (+)) [Dextromethorphan, (+)-3-methoxy-N-methylmorphinan]
OUT: 42

====

Assay: Clinical Study #2: plasma pharmacokinetics of dextromethorphan, dextrorphan and quinidine, single and multiple dose
Conditions: human, in vivo, Tmax (plasma), mean, Day 4; EM; 30 mg DM HBr/25 mg Q sulfate capsule every 12 hours
reported property: Tmax (h)
Answers are plain numbers, in h.

Your task in this section: give Tmax for each listed record.
1. COc1ccc2c(c1)[C@]13CCCCC1[C@H](C2)N(C)CC3 (single isomer, unassigned; (+)) [Dextromethorphan, (+)-3-methoxy-N-methylmorphinan]
2. CN1CC[C@@]23CCCC[C@@H]2[C@@H]1Cc1ccc(O)cc13 [Dextrorphan, dextrorphan]

OUT:
5.42
2.21

====

Assay: Clinical Study #2: plasma pharmacokinetics of dextromethorphan, dextrorphan and quinidine, single and multiple dose
Conditions: human, in vivo, AUC (0-12) (plasma), mean, Day 1; All Subjects; 30 mg DM HBr/25 mg Q sulfate capsule every 12 hours
For each entry below, report its AUC(0-t) value.
Give bare numbers, in ng·h/mL.

compound	AUC(0-t) [ng·h/mL]
COc1ccc2c(c1)[C@]13CCCCC1[C@H](C2)N(C)CC3 (single isomer, unassigned; (+)) [Dextromethorphan, (+)-3-methoxy-N-methylmorphinan]	148

IN: Data request, read-out AUC(0-t), for "CN1CC[C@@]23CCCC[C@@H]2[C@@H]1Cc1ccc(O)cc13"
OUT: 749

====

For each entry below, report its Tmax value.
Assay: Clinical Study #2: plasma pharmacokinetics of dextromethorphan, dextrorphan and quinidine, single and multiple dose
Settings: human, in vivo, Tmax (plasma), mean, Day 1; All Subjects; 30 mg DM HBr/25 mg Q sulfate capsule every 12 hours
Answers are plain numbers, in h.

molecule	display unit	reported
COc1ccc2c(c1)[C@]13CCCCC1[C@H](C2)N(C)CC3 (single isomer, unassigned; (+)) [Dextromethorphan, (+)-3-methoxy-N-methylmorphinan]	h	7.11

Attention now turns to another entry.
IN: Data request, read-out Tmax, for CN1CC[C@@]23CCCC[C@@H]2[C@@H]1Cc1ccc(O)cc13 [Dextrorphan, dextrorphan]
OUT: 3.78

====

Experiment: Clinical Study #2: plasma pharmacokinetics of dextromethorphan, dextrorphan and quinidine, single and multiple dose
Conditions: human, in vivo, AUC (0-12) (plasma), mean, Day 4; All Subjects; 30 mg DM HBr/25 mg Q sulfate capsule every 12 hours
For each entry below, report its AUC(0-t) value.
Answers are plain numbers, in ng·h/mL.

Your task in this section: give AUC(0-t) for each listed record.
1. CN1CC[C@@]23CCCC[C@@H]2[C@@H]1Cc1ccc(O)cc13
2. COc1ccc2c(c1)[C@]13CCCCC1[C@H](C2)N(C)CC3 (single isomer, unassigned; (+)) [Dextromethorphan, (+)-3-methoxy-N-methylmorphinan]

OUT:
742
886
